# Target: T1, human VISTA expressed on cells (human, UniProt Q9H7M9 33-311)
# T1 construct: also called HEK293 VISTA O/E; HEK293T or HEK293-6E cells overexpressing human VISTA
# Assay Remarks: flow cytometry, FITC anti-Fc detection; HEK293 VISTA O/E against HEK293
Measured Quantity: binding result

Binder | Test Value
anti-VISTA clone 1M2-D2 IgG1 (antibody, V domains shown) VH: EVKVEESGGGLVQPGGSMKLSCAASGFTFSDAWMDWVHQSPEKGLEWVAEIRSKANNHATYYVESVEGRFTISRDDSKSSVFLQVNSLRPEDTGIYYCTRRDGYYFAYWGQGTLVTVSA VL: DIVLTQSPAIMSASLGEEITLTCSASSSVRDMHWYQQKSGTSPKVLIYNTFNLASGVPSRFSGSGSGTFYSLTISSVEAGDAAAYYCHQWSSYPTFGGGTKLEIKR | binds
anti-VISTA clone 5M1-A11 IgG1 (antibody, V domains shown) VH: QVTLKVSGPGILQPSQTLSLTCSFSGFSLSTSGMGVSWIRQPSGKGLEWLAHIYWDDDKRYNPSLKSRLTISKDSSSNQVFLKITSVDTADTATYYCARRLDGYNDPYYFDYWGQGTTLTVSS VL: DVVMTQTPALMSASPGEKVTMTCSASSSVSYMYWYQQKPRSSPKPWIYLTSNLASGVPARFSGSGSGTSYSLTISSMEAEDAATYYCQQWNSNPYTFGGGTKLEIKR | binds
anti-VISTA clone 4M2-D9 IgG1 (antibody, V domains shown) VH: EVQLQESGPGLVKPSQSLSLTCTVTGYSITSDYAWNWIRQFPGNRLEWMGFISYSGFTTYSPSLESRISITRDTSKNQFFLQLISVTTEDTATYYCARNHYGGSYWYFDVWGAGTSVTVSS VL: DIVMTQSPGSLAVSLGQRATISCRASESVEYYGTSLMQWYLQKPGQPPKLLIYAASNVESGVPDRFRGSGSGTDFSLNIHPVEEDDIAMYFCQQSRKVPWTFGGGTKLEIKR | binds

Values were extracted from patent US20250313631A1.
